- Assayed system: Mitogen-activated protein kinase 13 (Homo sapiens) (UniProt O15264);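 also: mean inhibition of p38delta, screened as part of the GSK PKIS kinase inhibitor set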
- Sequence (O15264 whole entry): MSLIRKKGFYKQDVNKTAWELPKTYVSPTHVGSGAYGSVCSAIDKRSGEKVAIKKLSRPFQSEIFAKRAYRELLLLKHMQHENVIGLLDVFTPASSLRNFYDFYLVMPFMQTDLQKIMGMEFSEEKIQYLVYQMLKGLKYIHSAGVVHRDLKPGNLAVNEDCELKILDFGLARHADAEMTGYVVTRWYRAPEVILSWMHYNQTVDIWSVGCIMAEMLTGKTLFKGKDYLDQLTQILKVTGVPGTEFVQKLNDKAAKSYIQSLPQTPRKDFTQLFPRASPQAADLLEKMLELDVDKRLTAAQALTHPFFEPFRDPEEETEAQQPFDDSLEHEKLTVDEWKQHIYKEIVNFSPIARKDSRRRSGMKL
- Test conditions: at 1 µM
Quantity kind: inhibition (%)

In [3]: df
Out[3]:
                                    molecule  quantity_kind  unit_descriptor  numeric_readout
 0   NC(=O)c1cccc(Nc2nccc(Nc3cccc(F)c3)n2)c1     inhibition                %             0.02
 1          CN(C)CCCn1c(-c2nonc2N)nc2cnccc21     inhibition                %             4.99
 2  COc1cccc(-n2ncc3c(N/N=C/c4ccc(C)cc4)ncnc32)c1     inhibition                %             6.26
 3  NC(=O)c1sc(-n2cnc3ccccc32)cc1OCc1ccccc1Br     inhibition                %             5.08
 4  CN(c1ccc(NC(=O)Nc2ccc(OC(F)(F)F)cc2)cc1)c1ccnc(Nc2cccc(S(N)(=O)=O)c2)n1     inhibition                %              6.6
 5  COc1cc2ncn(-c3cc(OCc4ccccc4S(C)(=O)=O)c(C#N)s3)c2cc1OC     inhibition                %             3.85
 6  Nc1nccc(C#Cc2cncnc2Nc2ccc(OCc3cccc(F)c3)c(Cl)c2)n1     inhibition                %             4.65
 7  Cc1ccc2c(-c3ccnc(Nc4cccc(C(F)(F)F)c4)n3)c(-c3ccccc3)nn2n1     inhibition                %             6.13
 8     COC(=O)c1cncc(/C=C/c2c(C)cc(O)cc2C)c1     inhibition                %             4.29
 9  CN(C)c1cc2c(Nc3ccc4c(cnn4Cc4ccccc4)c3)ncnc2cn1     inhibition                %             2.47
10             c1ccc(Nc2ncc(-c3ccccc3)o2)cc1     inhibition                %             4.65
11  Cc1cc(O)cc(C)c1/C=C/c1cncc(C(=O)N(C)C)c1     inhibition                %             3.68
12  COc1cc(Nc2nccc(-c3cnn4ncccc34)n2)cc(OC)c1     inhibition                %             12.1
13  COc1cccc(-n2ncc3c(N/N=C/c4ccc(S(C)(=O)=O)cc4)ncnc32)c1     inhibition                %             6.79
14  NS(=O)(=O)c1cccc(Nc2cc(-c3ccc(F)cc3)n[nH]2)c1     inhibition                %             2.89
15  c1ccc(Cc2nc3ccc(Nc4ncnc5ccccc45)cc3[nH]2)cc1     inhibition                %             5.18
16  CS(=O)(=O)Nc1cccc(-c2ccc3c(NC(=O)C4CC4)n[nH]c3c2)c1     inhibition                %             1.02
17  Cc1cc(Cl)cc2c1NC(=O)C2=NNc1ccc(S(N)(=O)=O)cc1     inhibition                %             1.98
18  COc1cccc(-n2nc(C)c3c(N/N=C(\C)c4ccncc4)ncnc32)c1     inhibition                %            -0.68
19  CS(=O)(=O)CCNCc1nc(-c2ccc3ncnc(Nc4ccc(OCc5cccc(C(F)(F)F)c5)cc4)c3c2)cs1     inhibition                %             2.16
20  Cc1ccc(NC(=O)CC2CC2)cc1-c1ccc(C(=O)NCC2CC2)cc1     inhibition                %             4.09
21       COc1cc2ncnc(Nc3ccc(C)c(O)c3)c2cc1OC     inhibition                %             6.31
22  CCCN1CCCC(c2ccc(Nc3nc(Nc4cc(F)ccc4C(N)=O)c4cc[nH]c4n3)c(OC)c2)C1 (stereo unspecified)     inhibition                %             7.07
23   Cc1nc(-c2ccccc2)n2nc(NCCCN3CCOCC3)ncc12     inhibition                %             1.77
24  Nc1nccc(-c2c(-c3ccc(F)cc3)ncn2CCCN2CCOCC2)n1     inhibition                %             5.09
25  COC(=O)c1ccc2c(c1)C(=Cc1cc(Br)c(O)c(Br)c1)C(=O)N2     inhibition                %             5.81
26  CCS(=O)(=O)c1ccc(OC)c(Nc2ncc(-c3cccc(OC)c3)o2)c1     inhibition                %             4.76
27  O=C1Nc2ccccc2/C1=C/Nc1ccc2[nH]c(=O)[nH]c2c1     inhibition                %             4.97
28  CCS(=O)(=O)c1ccc(OC)c(Nc2nccc(N(C)c3ccc4c(C)n[nH]c4c3)n2)c1     inhibition                %             2.73
29   Cc1ccc(C(=O)NC2CC2)cc1-c1ccc2[nH]ncc2c1     inhibition                %            -5.34
30  CN(C)C(=O)O[C@H]1CN[C@H](C#Cc2cc3ncnc(Nc4ccc(OCc5cccc(F)c5)c(Cl)c4)c3s2)C1     inhibition                %             2.51
31             CCOc1nccc2c1nc(-c1nonc1N)n2CC     inhibition                %             2.91
32  O=C(Nc1ccc(Oc2ccc3[nH]c(NC(=O)c4ccco4)nc3c2)cc1)Nc1cc(C(F)(F)F)ccc1F     inhibition                %             1.53
33  Oc1cccc(-c2nc(-c3ccccc3)[nH]c2-c2ccncc2)c1     inhibition                %             3.86
34   Cc1ccc(O)cc1Nc1ccnc2ccc(S(C)(=O)=O)cc12     inhibition                %             6.26
35  OCc1ccc(-c2nc(-c3ccccn3)c(-c3ccc4c(c3)OCO4)[nH]2)cc1     inhibition                %             4.05
